- SUBJECT OF TEST: mGluR5 receptor (Sus scrofa, UniProt I3LUI7)
- Construct: 450 μg of protein from brain homogenate with 5 nM ^3[H]-MPEP; from tissue; host or cells: pig brain halves without medulla, cerebellum and pons
- Sequence (I3LUI7 19-1212): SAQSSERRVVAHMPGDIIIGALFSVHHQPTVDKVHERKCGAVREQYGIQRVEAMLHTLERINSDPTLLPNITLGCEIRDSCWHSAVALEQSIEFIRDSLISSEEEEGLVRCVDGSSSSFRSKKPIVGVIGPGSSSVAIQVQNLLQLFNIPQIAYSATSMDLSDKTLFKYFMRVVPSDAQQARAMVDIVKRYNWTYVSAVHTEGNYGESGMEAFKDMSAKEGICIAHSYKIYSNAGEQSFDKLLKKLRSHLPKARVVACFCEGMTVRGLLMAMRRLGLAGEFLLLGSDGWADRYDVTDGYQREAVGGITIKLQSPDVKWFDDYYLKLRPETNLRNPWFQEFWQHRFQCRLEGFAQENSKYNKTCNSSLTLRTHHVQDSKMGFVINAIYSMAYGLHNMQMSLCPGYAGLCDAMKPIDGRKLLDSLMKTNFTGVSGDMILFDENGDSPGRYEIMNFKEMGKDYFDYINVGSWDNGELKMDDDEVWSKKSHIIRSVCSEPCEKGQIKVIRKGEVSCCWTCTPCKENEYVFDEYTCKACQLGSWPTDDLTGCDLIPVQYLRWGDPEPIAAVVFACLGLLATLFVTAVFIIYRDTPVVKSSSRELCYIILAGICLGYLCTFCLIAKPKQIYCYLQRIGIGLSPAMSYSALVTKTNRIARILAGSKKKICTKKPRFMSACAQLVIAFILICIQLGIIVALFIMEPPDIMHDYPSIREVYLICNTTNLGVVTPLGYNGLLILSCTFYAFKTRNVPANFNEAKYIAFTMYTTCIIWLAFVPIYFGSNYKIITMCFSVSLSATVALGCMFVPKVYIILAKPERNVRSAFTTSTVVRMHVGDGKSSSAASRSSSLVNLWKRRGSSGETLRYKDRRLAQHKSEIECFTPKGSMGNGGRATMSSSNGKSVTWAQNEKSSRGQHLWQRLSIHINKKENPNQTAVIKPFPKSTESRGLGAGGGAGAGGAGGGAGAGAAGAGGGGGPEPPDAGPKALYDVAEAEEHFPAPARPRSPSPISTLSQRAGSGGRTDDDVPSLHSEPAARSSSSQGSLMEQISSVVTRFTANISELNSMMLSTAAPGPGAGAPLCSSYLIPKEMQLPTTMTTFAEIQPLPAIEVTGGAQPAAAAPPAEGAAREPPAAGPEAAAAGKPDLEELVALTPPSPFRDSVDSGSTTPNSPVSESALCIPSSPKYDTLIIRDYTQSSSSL
- PROCEDURE DETAILS: [3H]-MPEP mGluR5 receptor binding assay (pig brain homogenate)
- PARTICULARS: 10 μM compound, 5 nM [3H]-MPEP, read-out: % Inhibition of mGluR5 Receptor (pig) [^3H]-MPEP Bond at 10 μM
- Protocol: I. Method for Determining the Inhibition of the [^3H]-MPEP Bond in the mGluR5 Receptor Binding Assay […] The batches are then filtered using a Brandel cell harvester (Brandel, Robotic 9600) on unifilter plates with fibreglass filter mats (Perkin Elmer, order no. 6005177) and then washed with buffer (as above) 3-times each with 250 μl per sample. […] The non-specific binding is determined by adding 10 μM of MPEP (Tocris, order no. 1212).
PROPERTY NAME: inhibition at 10 µM (%)
# value in %; strip the unit string

Prompt line: Would you mind telling me what inhibition at 10 µM value was observed for `CCCCC(=O)N(Cc1cc(-c2ccc3nc(C)nc(NC4CC4)c3c2)ccc1F)C1CC1` ?
Response line: 91

Prompt line: Would you mind telling me what inhibition at 10 µM value was observed for `CC(C)(C)C(=O)N(Cc1cccc(-c2ccc3ncnc(NCCc4ccccc4)c3c2)c1)C1CC1` ?
Response line: 36

Prompt line: Would you mind telling me what inhibition at 10 µM value was observed for `COc1ccc(C(=O)N(Cc2cccc(-c3ccc4ncnc(NC5CC5)c4c3)c2)C2CC2)cc1` ?
Response line: 100

Prompt line: Would you mind telling me what inhibition at 10 µM value was observed for `Cc1nc(C(=O)N(Cc2cccc(-c3ccc4ncnc(NCCc5ccccc5)c4c3)c2)C2CC2)cs1` ?
Response line: 30

Prompt line: Would you mind telling me what inhibition at 10 µM value was observed for `O=C(c1cc2ccccc2cn1)N(Cc1cccc(-c2ccc3ncnc(NC4CC4)c3c2)c1)C1CC1` ?
Response line: 85

Next:
Prompt line: Would you mind telling me what inhibition at 10 µM value was observed for `O=C(Cc1ccccc1)N(Cc1cc(-c2ccc3ncnc(NC4CC4)c3c2)ccn1)C1CC1` ?
Response line: 36

Prompt line: Would you mind telling me what inhibition at 10 µM value was observed for `CCCCC(=O)N(Cc1cc(-c2ccc3ncnc(NC4CC4)c3c2)ccc1F)C1CC1` ?
Response line: 89

Prompt line: Would you mind telling me what inhibition at 10 µM value was observed for `CC(C)Nc1ncnc2ccc(-c3cccc(CN(Cc4ccccc4)C(=O)c4ccc(C#N)cc4)c3)cc12` ?
Response line: 37

---

- SUBJECT OF TEST: mGluR5 receptor (Sus scrofa, UniProt I3LUI7)
- Construct: 450 μg of protein from brain homogenate with 5 nM ^3[H]-MPEP; from tissue; host or cells: pig brain halves without medulla, cerebellum and pons
- PROCEDURE DETAILS: [3H]-MPEP mGluR5 receptor binding assay (pig brain homogenate)
- PARTICULARS: 10 μM compound, 5 nM [3H]-MPEP
PROPERTY NAME: % Inhibition of mGluR5 Receptor (pig) [^3H]-MPEP Bond at 10 μM (%)
# value in %; strip the unit string

The following compounds have reported results that may help.
Prompt line: Item `O=S(=O)(c1ccccc1)N(Cc1cc(-c2ccc3ncnc(NC4CC4)c3c2)ccn1)C1CC1` with mGluR5 receptor (Sus scrofa, UniProt I3LUI7) - % Inhibition of mGluR5 Receptor (pig) [^3H]-MPEP Bond at 10 μM?
Response line: 86

Prompt line: Item `COc1ccc(S(=O)(=O)N(Cc2cccc(-c3cc4c(NC5CC5)ncnc4cc3C)c2)C2CC2)cc1` with mGluR5 receptor (Sus scrofa, UniProt I3LUI7) - % Inhibition of mGluR5 Receptor (pig) [^3H]-MPEP Bond at 10 μM?
Response line: 86

Prompt line: Item `CC(C)(C)Nc1ncnc2ccc(-c3ccc(F)c(CN(C(=O)c4ccccc4)C4CC4)c3)cc12` with mGluR5 receptor (Sus scrofa, UniProt I3LUI7) - % Inhibition of mGluR5 Receptor (pig) [^3H]-MPEP Bond at 10 μM?
Response line: 86

Next:
Prompt line: Item `CC(C)(C)Nc1ncnc2ccc(-c3ccc(F)c(CN(C(=O)c4ccco4)C4CC4)c3)cc12` with mGluR5 receptor (Sus scrofa, UniProt I3LUI7) - % Inhibition of mGluR5 Receptor (pig) [^3H]-MPEP Bond at 10 μM?
Response line: 90

Prompt line: Item `O=S(=O)(c1c(F)c(F)c(F)c(F)c1F)N(Cc1cc(-c2ccc3ncnc(NC4CC4)c3c2)ccc1F)C1CC1` with mGluR5 receptor (Sus scrofa, UniProt I3LUI7) - % Inhibition of mGluR5 Receptor (pig) [^3H]-MPEP Bond at 10 μM?
Response line: 39

Prompt line: Item `CC(C)(C)Nc1ncnc2ccc(-c3ccc(F)c(CN(C(=O)c4cccs4)C4CC4)c3)cc12` with mGluR5 receptor (Sus scrofa, UniProt I3LUI7) - % Inhibition of mGluR5 Receptor (pig) [^3H]-MPEP Bond at 10 μM?
Response line: 88

The measured values listed here are drawn from patent US20090069320A1.
